All values here come from PubChem BioAssay (NCATS).

Please respond with reported Potency for every item in the list.
Tested on: Zika virus NS2B-NS3 protease (unlinked complex)
Test: Confirmatory screen GU AMC qHTS for Zika virus inhibitors (AID 1347153);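 note: enzyme at 25 nM with substrate at 10 µM below its Km of 18.3 µM; potency is the fitted concentration of half-maximal effect; nearly all actives have a fitted effect of over 70% in size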
Settings: Recombinant NS2B-NS3 protease, AMC substrate fluorescence
Results filed as inconclusive are left out. Calls of active or inactive are those of the source. Calls come from the whole dose curve; as a rule, active = well fitted inhibition curve with a large enough effect; inconclusive = small, poorly fitted or top-dose-only effect; inactive = flat fitted curve, though single readings scatter.

                                        mol  measuredattribute            result
0  N#Cc1ccc(N2N=C3c4ccc(C(=O)O)cc4CC[C@@H]3[C@@H]2C2CCCC2)cc1Cl            Potency  15.6 µM (active)
1  CC#C[C@@H](CC(=O)O)c1ccc(OCc2ccc(CN3CCC4(C=Cc5ccccc54)CC3)s2)cc1            Potency  39.3 µM (active)
2  CCCCCc1ccc(/C=C/C(=O)Nc2cc(Cl)ccc2C(=O)O)cc1            Potency  9.87 µM (active)
3  CCCCCCCOc1cc2c(cc1/C(C)=C/c1ccc(C(=O)O)cc1)C(C)(C)CCS2(=O)=O            Potency  8.79 µM (active)

Then this molecule:
-- ask // lookup Potency for O=C(Nc1ccc(-c2ccc(Cl)c(Cl)c2)cc1)C1=C(O)c2ccccc2S(=O)(=O)N1
-- reply 44.1 µM (active)

====

Tested on: PA-1
Test: Primary qHTS to identify gynecologic anti-cancer compounds using libraries of approved drugs and bioactive compounds (AID 1345084); note: nearly all actives have a fitted effect of over 55% in size
Conditions: Gynecologic cancer cell panel viability, ATPlite luminescence, 48 h; series mostly up to 57.5 µM
Inconclusive results are not listed. Active and inactive are the calls of the source. Calls follow the shape of the dose curve; as a rule, active = well fitted cell-killing curve with a large enough effect; inconclusive = small, poorly fitted or top-dose-only effect, or effect the other way; inactive = flat fitted curve, though single readings scatter.
Answer with one of the outcomes active, inactive

Use the examples below as a reference point.
>>> print(df.to_string())
                                   compound  qualitativelabel
0  CCOc1ccc(-n2c(C(C)N(Cc3cccnc3)C(=O)Cc3ccc(F)c(C(F)(F)F)c3)nc3ncccc3c2=O)cc1 (centres undefined)          inactive
1  C[C@@H]1CC[C@@]23CC[C@]4(C)[C@@](C=CC5[C@@]6(C)CC[C@H](O)C(C)(C)C6CC[C@]54C)(OC2=O)C3[C@H]1C (some centres undefined)          inactive
2  C/C1=C/CCC2=CC(OC2=O)C(C)(C)/C=C/C1=O (centres undefined)            active
3  CC(C)(C)C1CCN(C(=O)n2ncc(C(O)(c3ccccc3)c3ccccc3)n2)CC1          inactive
4  N#CC(CCCN1CCN(/N=C/c2cccnc2)CC1)(c1ccccc1)c1ccccc1          inactive
5  Cc1c(F)ccc(C(=O)Nc2cc([N+](=O)[O-])ccc2N2CCN(C)CC2)c1Cl          inactive

-- ask Tell me the assay call for COc1ccc2cc3c(NC(=O)c4ccco4)nn(C)c3nc2c1 please.
-- reply inactive

-- ask Param item: CN(C)S(=O)(=O)c1ccc(NC(=S)N2CCC(C(O)(c3ccccc3)c3ccccc3)CC2)cc1
-- reply inactive

-- ask Quick one: Cc1c(C(=O)NCc2cccnc2)nn(-c2ccc(Cl)cc2Cl)c1-c1ccc(Cl)cc1
-- reply inactive

====

Test: Primary redox qHTS assay for identification of artifact compounds. (AID 1845223);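 note: 0% = DMSO and 100% = reference compound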
Conditions: Amplex Red/HRP redox cycling with DTT, fluorescence; series mostly up to 53.8 µM
Results filed as inconclusive are left out. The source made the active and inactive calls. Calls follow the shape of the dose curve; as a rule, active = well fitted activation curve with a large enough effect; inconclusive = small, poorly fitted or top-dose-only effect; inactive = flat fitted curve, though single readings scatter.
measuredAttribute: redox activity (% of DA3003)

compound	redox activity (% of DA3003)
CC1CC(=O)C2=C(C1)C1OC1C1(O)C2C(=O)c2cccc(O)c2C1O (stereo not drawn)	inactive
COc1ccccc1OCCNCC(O)CCOc1cccc2[nH]c3ccccc3c12 (stereo not drawn)	inactive
C=C1CCC2C(C)(C(=O)O)CCCC2(C)C1CCC1=CCOC1=O (stereo not drawn)	inactive
C=CC(C)(C)c1[nH]c2ccccc2c1C[C@@H]1NC(=O)[C@H](C)NC1=O	inactive
Cc1cccc(CC(=O)N2CCc3c2ccc(-c2cn(C)c4ncnc(N)c24)c3F)n1	inactive
N#Cc1cccc(C(=O)Nc2cc(-c3ccccc3)nn2-c2ccccc2)c1	inactive

Would you mind giving redox activity (% of DA3003) for every compound in the list below?
1. C=CC(C)(O)CC/C=C(\C)C(=O)OC1C(O)C(CO)OC(OC(=O)C23CCC(C)(C)CC2C2=CCC4C5(C)CCC(OC6OC(COC7OCC(OC(C)=O)C(O)C7OC7OC(COC(C)=O)C(O)C(O)C7OC(C)=O)C(O)C(O)C6OC6OCC(O)C(O)C6O)C(C)(C)C5CCC4(C)C2(C)C(O)C3O)C1OC1OCC(OC2OCC(O)C(OC3OCC(O)C(O)C3O)C2O)C(O)C1O (stereo not drawn)
2. CC1(CO)CC(O)[C@]2(C(=O)O)CCC34CC3(C=CC3[C@]5(C)C(CC[C@]34C)C(C)(CO)[C@@H](O)[C@H](O)[C@@H]5O)C2C1 (stereo partly drawn)

-- reply
1. 4.4% [at 6.41 µM] (inactive)
2. inactive
